- Species: Xenopus sp.
- PROTOCOL: Compound was evaluated for blocking of depolarization induced by 30 uM AMPA in xenopus oocytes injected with rat brain m-RNA
- Assay type: functional, frog
MEASURE: pKi
The value called pKi is obtained by taking minus log10 of the concentration in mol/L.

Quick one: give measured pKi for O=[N+]([O-])c1ccc2cc(NS(=O)(=O)C(F)(F)F)c(O)nc2c1
6.43

====

- PROTOCOL: Binding affinity towards glycine site on the NMDA receptor was determined
- Parameters: species or system Rattus norvegicus
MEASURE: Ki (µM)
Kindly answer with a numeric value in µM, unit omitted.

Query Ki for O=[N+]([O-])c1cc2nc(O)c(O)nc2cc1[N+](=O)[O-]
0.39

====

- TARGET OR TEST SYSTEM: Glutamate receptor ionotropic kainate
- PROTOCOL: Binding affinity against Ionotropic glutamate receptor kainate using [3H]-Kainic acid as a radioligand
Would you kindly list IC50 for each of these compounds?
Numbers only here, please. The scale is µM.

Supply measured IC50 of O=C(O)[C@@H]1C[C@H]2C[C@@H](c3nnn[nH]3)CC[C@H]2CN1 (stereo in doubt; (-)-6) in your reply.
21

Tell me its IC50 given O=C(O)[C@@H]1C[C@H]2C[C@@H](c3nnn[nH]3)CC[C@H]2CN1 (racemic) as the entry.
31.8

Please give the documented IC50 of O=C(O)[C@@H]1C[C@H]2C[C@@H](CCc3nn[nH]n3)CC[C@H]2CN1 (racemic) [TEZAMPANEL ANHYDROUS]
247

====

- TARGET OR TEST SYSTEM: Glutamate NMDA receptor
- PROTOCOL: Binding affinity against NMDA receptor using [3H]-CGS- 19755 as a radioligand in rat
MEASURE: pIC50
// scale note: pIC50 = -log10(conc_M); give the bare number

Report measured pIC50 on Glutamate NMDA receptor; entry: O=C(O)[C@@H]1C[C@H]2C[C@@H](Cc3nnn[nH]3)CC[C@H]2CN1 (racemic)
6.09

Quote Glutamate NMDA receptor pIC50 for entry O=C(O)[C@@H]1C[C@H]2C[C@H](c3nnn[nH]3)CC[C@H]2CN1 (racemic) .
4.42

Please respond with reported pIC50 (system Glutamate NMDA receptor) for O=C(O)[C@@H]1C[C@H]2C[C@@H](CCc3nn[nH]n3)CC[C@H]2CN1 (racemic) [TEZAMPANEL ANHYDROUS] .
4.58

Give pIC50 only, for O=C(O)[C@@H]1C[C@H]2C[C@@H](c3nnn[nH]3)CC[C@H]2CN1 (stereo in doubt; (-)-6) , using Glutamate NMDA receptor data.
6.00

Consider the compound O=C(O)[C@@H]1C[C@H]2C[C@@H](c3nnn[nH]3)CC[C@H]2CN1 (racemic) tested on Glutamate NMDA receptor; state its pIC50.
5.80

====

I'd appreciate it if you could supply IC50 values for the items below.
- TARGET OR TEST SYSTEM: Glutamate receptor ionotropic AMPA (Homo sapiens, UniProt P42261+P42262+P42263+P48058)
- PROTOCOL: Binding affinity against Ionotropic glutamate receptor AMPA using [3H]AMPA as a radioligand

Check Glutamate receptor ionotropic AMPA (Homo sapiens, UniProt P42261+P42262+P42263+P48058) data and give IC50 for O=C(O)[C@@H]1C[C@H]2C[C@@H](c3nnn[nH]3)CC[C@H]2CN1 (racemic) .
12.8 µM

Enter measured IC50, system Glutamate receptor ionotropic AMPA (Homo sapiens, UniProt P42261+P42262+P42263+P48058), for the molecule shown: O=C(O)[C@@H]1C[C@H]2C[C@H](c3nnn[nH]3)CC[C@H]2CN1 (racemic)
> 100 µM

Provide the reported IC50 (system: Glutamate receptor ionotropic AMPA (Homo sapiens, UniProt P42261+P42262+P42263+P48058)) for O=C(O)[C@@H]1C[C@H]2C[C@@H](Cc3nnn[nH]3)CC[C@H]2CN1 (racemic)
84.5 µM

State IC50 on Glutamate receptor ionotropic AMPA (Homo sapiens, UniProt P42261+P42262+P42263+P48058). Entry: O=C(O)[C@@H]1C[C@H]2C[C@@H](c3nnn[nH]3)CC[C@H]2CN1 (stereo in doubt; (-)-6)
5.7 µM

For Glutamate receptor ionotropic AMPA (Homo sapiens, UniProt P42261+P42262+P42263+P48058), give the measured IC50 of the entry O=C(O)[C@@H]1C[C@H]2C[C@@H](c3nnn[nH]3)CC[C@H]2CN1 (stereo in doubt; (+)-6)
> 100 µM

Give Glutamate receptor ionotropic AMPA (Homo sapiens, UniProt P42261+P42262+P42263+P48058) IC50 for the following molecule: O=C(O)[C@H]1CC[C@H]2CN[C@H](C(=O)O)C[C@H]2C1 (racemic)
> 100 µM

====

- Species: Rattus norvegicus
- PROTOCOL: Inhibitory activity against compound induced depolarization of AMPA receptor in rat cortical slice preparation
- Format: functional
- CONDITION INFO: Rattus norvegicus
Please go through the items and note down their IC50.

Give the reported value of IC50 for this record: O=C(O)[C@@H]1C[C@H]2C[C@@H](Cc3nnn[nH]3)CC[C@H]2CN1 (racemic)
> 100 µM

Report measured IC50; entry is O=C(O)[C@H]1CC[C@H]2CN[C@H](C(=O)O)C[C@H]2C1 (racemic)
> 100 µM

Name the recorded IC50 of the compound listed here: O=C(O)[C@@H]1C[C@H]2C[C@@H](CCc3nn[nH]n3)CC[C@H]2CN1 (racemic) [TEZAMPANEL ANHYDROUS]
6 µM

Look up and state reported IC50 for O=C(O)[C@@H]1C[C@H]2C[C@H](c3nnn[nH]3)CC[C@H]2CN1 (racemic)
> 100 µM

====

- TARGET OR TEST SYSTEM: Glutamate receptor ionotropic AMPA (Homo sapiens, UniProt P42261+P42262+P42263+P48058)
- PROTOCOL: Binding affinity against Ionotropic glutamate receptor AMPA using [3H]AMPA as a radioligand
MEASURE: Ki (nM)
Give a bare numeral; the unit nM is implied.

Quick one: give measured Ki for O=[N+]([O-])c1ccc2cc(NS(=O)(=O)C(F)(F)F)c(O)nc2c1
600

Tell me measured Ki for O=[N+]([O-])c1cc2nc(O)c(O)nc2cc1[N+](=O)[O-] please.
360

====

- TARGET OR TEST SYSTEM: Glutamate receptor ionotropic kainate
- PROTOCOL: Binding affinity against Ionotropic glutamate receptor kainate using [3H]-Kainic acid as a radioligand
MEASURE: IC50

Name the recorded IC50 of the compound listed here: O=C(O)[C@@H]1C[C@H]2C[C@@H](c3nnn[nH]3)CC[C@H]2CN1 (stereo in doubt; (+)-6)
> 100 µM

Respond only with IC50 recorded for O=C(O)[C@@H]1C[C@H]2C[C@H](c3nnn[nH]3)CC[C@H]2CN1 (racemic)
> 100 µM

Give the value of IC50 reported for the following: O=C(O)[C@@H]1C[C@H]2C[C@@H](Cc3nnn[nH]3)CC[C@H]2CN1 (racemic)
> 100 µM

Where these numbers come from: ChEMBL document CHEMBL1128208
